Target chain: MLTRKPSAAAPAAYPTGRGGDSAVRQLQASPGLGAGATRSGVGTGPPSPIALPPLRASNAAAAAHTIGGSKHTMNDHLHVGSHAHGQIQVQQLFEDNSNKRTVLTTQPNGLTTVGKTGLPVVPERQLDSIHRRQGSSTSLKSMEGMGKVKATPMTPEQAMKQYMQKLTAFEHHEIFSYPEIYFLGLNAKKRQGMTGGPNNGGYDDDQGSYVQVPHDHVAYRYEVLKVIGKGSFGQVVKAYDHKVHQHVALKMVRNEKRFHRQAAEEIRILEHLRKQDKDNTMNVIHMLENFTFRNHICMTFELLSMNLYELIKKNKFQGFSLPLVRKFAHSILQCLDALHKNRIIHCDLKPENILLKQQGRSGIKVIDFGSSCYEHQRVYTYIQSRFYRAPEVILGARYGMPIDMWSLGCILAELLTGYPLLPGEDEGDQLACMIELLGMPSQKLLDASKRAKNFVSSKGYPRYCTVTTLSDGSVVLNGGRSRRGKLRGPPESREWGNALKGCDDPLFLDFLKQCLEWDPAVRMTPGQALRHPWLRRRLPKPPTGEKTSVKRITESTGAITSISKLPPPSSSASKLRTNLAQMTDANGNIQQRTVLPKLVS
Here the recorded IC50 is given for each entry.
Measured Endpoint: IC50

Compound: Nc1ncsc1C#Cc1cccc(O)c1 [Compound A27, 3-(4-aminothiazol-5-ylethynyl)phenol]
Experimental Result: 1 to 10 µM

Compound: Nc1ncsc1C#Cc1cnc2[nH]ccc2c1 [Compound A22]
Experimental Result: > 1 µM

Compound: c1ccc(Cc2c[nH]c3ncsc23)cc1 [Compound A7, 6-benzyl-4H-pyrrolo[2,3-d]thiazole]
Experimental Result: > 1 µM

Compound: CC(C)(C)OC(=O)Nc1nc(-c2ccncc2)sc1C#CCN1CCOCC1 [Compound A25]
Experimental Result: > 1 µM

Compound: CC(C)(C)OC(=O)Nc1ncsc1C#CCN1C(=O)c2ccccc2C1=O [Compound A26]
Experimental Result: > 1 µM

====

Study System: AURKB (Homo sapiens)
Sequence (Q96GD4 whole entry, species assumed): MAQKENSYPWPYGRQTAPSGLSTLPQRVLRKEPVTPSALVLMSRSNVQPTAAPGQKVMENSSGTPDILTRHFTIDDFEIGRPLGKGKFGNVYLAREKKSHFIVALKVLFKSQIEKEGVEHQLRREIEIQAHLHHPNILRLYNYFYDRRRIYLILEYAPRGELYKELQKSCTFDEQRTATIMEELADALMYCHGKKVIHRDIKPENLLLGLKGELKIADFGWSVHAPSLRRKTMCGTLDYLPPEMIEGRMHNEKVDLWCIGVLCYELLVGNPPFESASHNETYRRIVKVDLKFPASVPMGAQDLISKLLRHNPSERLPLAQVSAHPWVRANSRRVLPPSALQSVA
pIC50: −log10 of the molar value.
Measured Endpoint: pIC50

Molecule: Nc1ncsc1C#Cc1cccc(O)c1
Experimental Result: 4.00 to 5.00
//
Molecule: CC(C)(C)OC(=O)Nc1nc(-c2ccncc2)sc1C#CCN1CCOCC1
Experimental Result: < 6.00
//
Molecule: Nc1ncsc1C#Cc1cnc2[nH]ccc2c1
Experimental Result: 4.00 to 5.00
//
Molecule: c1ccc(Cc2c[nH]c3ncsc23)cc1 [Compound A7, 6-benzyl-4H-pyrrolo[2,3-d]thiazole]
Experimental Result: 5.00 to 6.00
//
Molecule: CC(C)(C)OC(=O)Nc1ncsc1C#CCN1C(=O)c2ccccc2C1=O
Experimental Result: < 6.00

====

Recorded below: IC50, system EEF2K (Homo sapiens).
Measured Endpoint: IC50

Compound: c1ccc(Cc2c[nH]c3ncsc23)cc1 [Compound A7, 6-benzyl-4H-pyrrolo[2,3-d]thiazole]
Experimental Result: 10 to 100 µM
--
Compound: CC(C)(C)OC(=O)Nc1nc(-c2ccncc2)sc1C#CCN1CCOCC1 [Compound A25]
Experimental Result: > 1 µM
--
Compound: Nc1ncsc1C#Cc1cnc2[nH]ccc2c1 [Compound A22]
Experimental Result: 10 to 100 µM
--
Compound: CC(C)(C)OC(=O)Nc1ncsc1C#CCN1C(=O)c2ccccc2C1=O [Compound A26]
Experimental Result: 10 to 100 µM
--
Compound: Nc1ncsc1C#Cc1cccc(O)c1 [Compound A27, 3-(4-aminothiazol-5-ylethynyl)phenol]
Experimental Result: 1 to 10 µM

Origin of the recorded values: patent US8703961B2
